measurement-target: recombinant human DNase I (Homo sapiens, UniProt P24855)
assay-remarks: High-throughput DNase I screening assay
Type: biochemical
protocol-conditions: read-out: IC50 against DNase I; DNase I 1.72 nM, 37 °C, HTS assay
endpoint-label: IC50 (µM)
Give your result in µM as a bare value.

Input: Assign IC50 to the following record: [Cl-].[Cl-].[Zn+2] [ZnCl2, reference compound]
Output: 18

---

measurement-target: recombinant human DNase I (Homo sapiens)
Sequence (P24855 23-282): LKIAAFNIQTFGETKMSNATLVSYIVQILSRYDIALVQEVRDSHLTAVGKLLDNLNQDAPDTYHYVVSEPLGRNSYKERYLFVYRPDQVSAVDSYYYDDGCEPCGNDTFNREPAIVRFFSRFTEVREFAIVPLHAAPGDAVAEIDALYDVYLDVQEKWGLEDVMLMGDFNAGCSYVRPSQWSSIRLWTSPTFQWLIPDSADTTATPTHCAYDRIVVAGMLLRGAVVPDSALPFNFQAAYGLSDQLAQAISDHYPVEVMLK
assay-remarks: High-throughput DNase I screening assay
Assay type: biochemical
endpoint-label: IC50 (µM)
Give your result in µM as a bare value.

Input: Assign IC50 to the following record: O=C(O)CN(CCN(CC(=O)O)CC(=O)O)CC(=O)O [EDTA, ethylenediaminetetraacetic acid, reference compound]
Output: 190
